B1: glmS ribozyme (parent)
chain: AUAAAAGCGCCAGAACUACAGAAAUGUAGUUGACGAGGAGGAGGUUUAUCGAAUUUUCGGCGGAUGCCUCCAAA

# Variants of: B1
# assay.protocol: kcat; higher = faster cleavage; RNA array
# applied.conditions: with glucosamine-6-phosphate
This sample holds only a part of the variants without activity.
readout: kcat (s⁻¹)
Answers are plain numbers, in s⁻¹.

>>> print(df.to_string())
                            record_sequence  measured_result
0  AUAAAAGCGCCAGAAGUACAGAAAUGUAGUUGACGAGGAGGAGGUUUAUCGAAUUUUGGGCGGAUGCCUCCAAA [C16G C58G]         6.23e-05
1  AUAAAAGCGCCAGAACUACAGAAAUGUAGUUGACGAAGAGGAGGUUUAUCGAAUUUUCGGCGGAUUCCUCCAAA [G37A G66U]         0.000462
2  AUAAAAGCGCCCGAACUACAGAAAUGUAGUUGACGAGGAGGAGGUUUAUCGAAUAUUCGGCGGAUGCCUCCAAA [A12C U55A]           0.0159

Look at each variant and report its kcat.
1. AUAAAAGCGCCAGAACUACAGAAAUGUACUUGACGAGGAGGAGGUUUAUCGAAUUUUCGGCGGAUGCCUCAAAA [G29C C71A]
2. AUAAAAGCGCCUGAACUACAGAAAUGUAGUUGACGAGGAGGAGGUUGAUCGAAUUUCCGGCGGAUGCCUCCAAA [A12U U47G U57C]
3. AUAAAAGCGCCCUAACUACAGAAAUGUAGUUGACGAGGAGGAGGUUUAUCGAAUUUUCGGCGGAUGCCUCGAAA [A12C G13U C71G]
4. AUAAAAGCGCCAGAACUACAGAAAUGUAAUUGACGAGGAGGAGGUUUAUCGAAUUUUCGGCGGAUGGCUCCAAA [G29A C67G]

1: 0.000154; 2: 0.000776; 3: 1.5e-05; 4: 0.00016
